- experimentalProtocol: Quinone/hydroquinone cycling in microsomal incubations
- experimentalSetup: microsomal incubation with NAD(P)H; data not shown
measurementKind: compound in the quinone form on HPLC

Solved cases below.
[[record]]
compound = "CO[C@H]1/C=C\\C=C(/C)C(=O)NC2=CC(=O)C(NCCN(C)C)=C(C[C@@H](C)C[C@H](OC)[C@H](O)[C@@H](C)/C=C(\\C)[C@@H]1OC(N)=O)C2=O [17DMAG]"
measurementkind = "compound in the quinone form on HPLC"
measuredvalue = "> 95%"

[[record]]
compound = "C=CCNC1=C2C[C@@H](C)C[C@H](OC)[C@H](O)[C@@H](C)/C=C(\\C)[C@H](OC(N)=O)[C@@H](OC)/C=C\\C=C(/C)C(=O)NC(=CC1=O)C2=O [17AAG, 17-(allylamino)-17-demethoxygeldanamycin]"
measurementkind = "compound in the quinone form on HPLC"
measuredvalue = "> 95%"


Now, please, on to the next compound.
In: Bench note: what compound in the quinone form on HPLC did CO[C@H]1/C=C\C=C(/C)C(=O)NC2=CC(=O)C(N)=C(C[C@@H](C)C[C@H](OC)[C@H](O)[C@@H](C)/C=C(\C)[C@@H]1OC(N)=O)C2=O [17AG, 17-(amino)-17-demethoxygeldanamycin] show?
Out: > 95%
